Values compiled from paper PMC3650853.

Molecular target: rCB1 receptor (Rattus norvegicus)
Sequence (P20272 whole entry): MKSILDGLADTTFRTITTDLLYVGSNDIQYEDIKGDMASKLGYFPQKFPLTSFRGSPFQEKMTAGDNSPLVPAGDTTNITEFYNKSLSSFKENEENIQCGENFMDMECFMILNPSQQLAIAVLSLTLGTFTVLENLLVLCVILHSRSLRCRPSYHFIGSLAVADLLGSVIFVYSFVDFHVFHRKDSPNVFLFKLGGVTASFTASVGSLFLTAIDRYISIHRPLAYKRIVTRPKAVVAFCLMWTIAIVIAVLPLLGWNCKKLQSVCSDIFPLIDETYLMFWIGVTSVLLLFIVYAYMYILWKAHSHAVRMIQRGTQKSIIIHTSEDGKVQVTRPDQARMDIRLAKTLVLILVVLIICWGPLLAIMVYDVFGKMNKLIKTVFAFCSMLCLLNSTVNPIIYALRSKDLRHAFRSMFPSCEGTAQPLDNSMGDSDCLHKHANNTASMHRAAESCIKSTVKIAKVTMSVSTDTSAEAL
measured-parameter: EC50
Enter the number, and then the unit.

Could you please provide reported EC50 for "CCCCCCC1(c2cc(O)c3c(c2)OC(C)(C)[C@@H]2CC[C@@H](O)C[C@@H]32)CCC1" ? Thanks! 1.5 nM
